The values you see were collected from patent US20200079854A1.

Target: KRAS wt(8-16) peptide … with HLA-A11 and b2M on peptide-pulsed MINO cells (human)
Assay: flow cytometry, phage-displayed scFv on peptide-pulsed MINO cells (FIG. 10)
measurement kind: binding result

KRAS_G12D_A11_c115 (scFv) scFv: DIQMTQSPSSLSASVGDRVTITCRASQDVNTAVAWYQQKPGKAPKLLIYSASFLYSGVPSRFSGSRSGTDFTLTISSLQPEDFATYYCQQYSYMPITFGQGTKVEIKRTGGGSGGGGSGGGASEVQLVESGGGLVQPGGSLRLSCAASGFNVSGQYMHWVRQAPGKGLEWVAVISPVSGNTYYADSVKGRFTISADTSKNTAYLQMNSLRAEDTAVYYCSRPMKTSYYGAFDYWGQGTLVTVSS ... no binding
KRAS_G12D_A11_c119 (scFv) scFv: DIQMTQSPSSLSASVGDRVTITCRASQDVNTAVAWYQQKPGKAPKLLIYSASFLYSGVPSRFSGSRSGTDFTLTISSLQPEDFATYYCQQYSSSSPVTFGQGTKVEIKRTGGGSGGGGSGGGASEVQLVESGGGLVQPGGSLRLSCAASGFNFSSYVMHWVRQAPGKGLEWVAVVYPDSGGTYYADSVKGRFTISADTSKNTAYLQMNSLRAEDTAVYYCSRTSSYYAFDYWGQGTLVTVSS ... no binding
KRAS_G12D_A11_c118 (scFv) scFv: DIQMTQSPSSLSASVGDRVTITCRASQDVNTAVAWYQQKPGKAPKLLIYSASFLYSGVPSRFSGSRSGTDFTLTISSLQPEDFATYYCQQYDFTPMTFGQGTKVEIKRTGGGSGGGGSGGGASEVQLVESGGGLVQPGGSLRLSCAASGFNISYAKMHWVRQAPGKGLEWVAYLTYWGGYTNYADSVKGRFTISADTSKNTAYLQMNSLRAEDTAVYYCSRGEYGTYMDYWGQGTLVTVSS ... no binding
